Values from patent US20130266605A1

system tested: T1, CD40 ligand (UniProt P29965 108-261, limits assumed)
T1 construct: Used immobilised, soluble, or biotinylated on streptavidin beads; also called CD154; soluble CD40L
T1 sequence (looked up): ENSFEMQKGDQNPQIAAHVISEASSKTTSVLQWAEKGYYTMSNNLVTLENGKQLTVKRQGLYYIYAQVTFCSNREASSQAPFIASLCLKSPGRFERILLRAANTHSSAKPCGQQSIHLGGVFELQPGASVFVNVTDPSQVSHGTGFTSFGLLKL
experiment summary: Octet Red label-free (BLI)
experimental readout: pKd
Keep it numeric: pKd is minus log10 of the concentration in mol/L.

PRWVRNRFYSLFVPSGVQRGGIHLWFSNWVR (Cys-to-Ser derivative) [CD40L M1_50s]	6.22

Turning now to a further record.
Lab note: measured pKd of DAAGREFFQIAGLFSFRHHWWQA [CD40L M1_30s] was 6.40
